# Species on record: Rattus norvegicus
# EXPERIMENTAL PROTOCOL: Open TG-GATES - Regimen: Daily Repeat
# Type: toxicity, organism-based, Sprague-Dawley
# Design: regimen Daily Repeat, gender Male, age 6 weeks
# CONDITION PARAMETERS: in vivo, po, 0 mg/kg, 72 h, tissue Plasma, route gavage, dose level Control, time 3 day
Each record is given fulfilled if its reported IP is strictly below 8 mg/dL. Records at or above 8 mg/dL are given not fulfilled.

MOLECULE	CLASS LABEL
Clc1c(Cl)c(Cl)c(Cl)c(Cl)c1Cl [PERCHLOROBENZENE]	not fulfilled
CC(=O)Nc1nnc(S(N)(=O)=O)s1 [ACETAZOLAMIDE]	fulfilled
CCOC(=O)[C@H](CCc1ccccc1)N[C@@H](C)C(=O)N1CCC[C@H]1C(=O)O	not fulfilled
Cc1cccc(Nc2ccccc2C(=O)O)c1C [MEFENAMIC ACID]	fulfilled
CN1C(C(=O)Nc2ccccn2)=C(O)c2sc(Cl)cc2S1(=O)=O [LORNOXICAM]	fulfilled
C1CCC(C(CC2CCCCN2)C2CCCCC2)CC1 (stereo not given) [PERHEXILINE]	fulfilled
CC(CN1c2ccccc2Sc2ccccc21)N(C)C (stereo not given) [PROMETHAZINE]	fulfilled

====

# Species: Rattus norvegicus
# EXPERIMENTAL PROTOCOL: Open TG-GATES - Regimen: Single
# Format: toxicity, organism-based, Sprague-Dawley
# Parameters: regimen Single, gender Male, age 6 weeks
# CONDITION PARAMETERS: in vivo, po, 0 mg/kg, 9 h, tissue Plasma, route gavage, dose level Control

MOLECULE	UNIT INFO	TC
CC(CN1c2ccccc2Sc2ccccc21)N(C)C (centres undefined)	mg/dL	73.2
Cc1cccc(Nc2ccccc2C(=O)O)c1C	mg/dL	75.2
COc1cc([C@@H]2c3cc4c(cc3[C@@H](O[C@@H]3O[C@@H]5CO[C@@H](C)O[C@H]5[C@H](O)[C@H]3O)[C@H]3COC(=O)[C@H]23)OCO4)cc(OC)c1O [ETOPOSIDE]	mg/dL	71.6
C1CCC(C(CC2CCCCN2)C2CCCCC2)CC1 (centres undefined)	mg/dL	76.4

====

# Species on record: Rattus norvegicus
# EXPERIMENTAL PROTOCOL: Open TG-GATES - Regimen: Daily Repeat
# Assay type: toxicity, organism-based, Sprague-Dawley
# Set-up: regimen Daily Repeat, gender Male, age 6 weeks
# CONDITION PARAMETERS: in vivo, po, 0 mg/kg, […], route gavage, dose level Control, time 14 day
Catalogue of compounds with associated TERMINAL_BW

COMPOUND	TERMINAL_BW (g)
C#C[C@]1(O)CC[C@H]2[C@@H]3CCC4=Cc5oncc5C[C@]4(C)[C@H]3CC[C@@]21C [DANAZOL]	328.6
Clc1c(Cl)c(Cl)c(Cl)c(Cl)c1Cl [PERCHLOROBENZENE]	321.1
CC(CN1c2ccccc2Sc2ccccc21)N(C)C (stereo not given) [PROMETHAZINE]	326
C1CCC(C(CC2CCCCN2)C2CCCCC2)CC1 (stereo not given) [PERHEXILINE]	290.3
CCOC(=O)[C@H](CCc1ccccc1)N[C@@H](C)C(=O)N1CCC[C@H]1C(=O)O	338.3
O=C(O)Cc1ccccc1Nc1c(Cl)cccc1Cl [DICLOFENAC]	317.2
CN(C)[C@@H]1C(O)=C(C(N)=O)C(=O)[C@@]2(O)C(O)=C3C(=O)c4c(O)cccc4[C@@](C)(O)[C@H]3C[C@@H]12 [TETRACYCLINE]	287.8
CN1C(C(=O)Nc2ccccn2)=C(O)c2sc(Cl)cc2S1(=O)=O [LORNOXICAM]	335.2
CC(=O)Nc1nnc(S(N)(=O)=O)s1 [ACETAZOLAMIDE]	306.6
Cc1cccc(Nc2ccccc2C(=O)O)c1C [MEFENAMIC ACID]	316.1

====

Catalogue of compounds with associated Ret
# Organism: Rattus norvegicus
# EXPERIMENTAL PROTOCOL: Open TG-GATES - Regimen: Single
# Assay type: toxicity, organism-based, Sprague-Dawley
# Set-up: regimen Single, gender Male, age 6 weeks
# CONDITION PARAMETERS: in vivo, po, 0 mg/kg, 6 h, tissue Blood, route gavage, dose level Control
PROPERTY: Ret (%)

COMPOUND	PROPERTY	RESULT NUMBER
CCOC(=O)[C@H](CCc1ccccc1)N[C@@H](C)C(=O)N1CCC[C@H]1C(=O)O	Ret	8.4
CC(CN1c2ccccc2Sc2ccccc21)N(C)C (stereo not given) [PROMETHAZINE]	Ret	7.3
COc1cc([C@@H]2c3cc4c(cc3[C@@H](O[C@@H]3O[C@@H]5CO[C@@H](C)O[C@H]5[C@H](O)[C@H]3O)[C@H]3COC(=O)[C@H]23)OCO4)cc(OC)c1O [ETOPOSIDE]	Ret	9.8
C1CCC(C(CC2CCCCN2)C2CCCCC2)CC1 (stereo not given) [PERHEXILINE]	Ret	7.4
CC(=O)Nc1nnc(S(N)(=O)=O)s1 [ACETAZOLAMIDE]	Ret	8.3
CN(C)[C@@H]1C(O)=C(C(N)=O)C(=O)[C@@]2(O)C(O)=C3C(=O)c4c(O)cccc4[C@@](C)(O)[C@H]3C[C@@H]12 [TETRACYCLINE]	Ret	10.7
Clc1c(Cl)c(Cl)c(Cl)c(Cl)c1Cl [PERCHLOROBENZENE]	Ret	7.2
CN1C(C(=O)Nc2ccccn2)=C(O)c2sc(Cl)cc2S1(=O)=O [LORNOXICAM]	Ret	7.2
Cc1cccc(Nc2ccccc2C(=O)O)c1C [MEFENAMIC ACID]	Ret	7.8
C#C[C@]1(O)CC[C@H]2[C@@H]3CCC4=Cc5oncc5C[C@]4(C)[C@H]3CC[C@@]21C [DANAZOL]	Ret	7.2

====

Catalogue of compounds with associated Ret
# Species on record: Rattus norvegicus
# EXPERIMENTAL PROTOCOL: Open TG-GATES - Regimen: Daily Repeat
# Assay type: toxicity, organism-based, Sprague-Dawley
# Design: regimen Daily Repeat, gender Male, age 6 weeks
# CONDITION PARAMETERS: in vivo, po, 0 mg/kg, […], tissue Blood, route gavage, dose level Control, time 7 day

COMPOUND	Ret, %
C1CCC(C(CC2CCCCN2)C2CCCCC2)CC1 (stereo not given) [PERHEXILINE]	5.6
Cc1cccc(Nc2ccccc2C(=O)O)c1C [MEFENAMIC ACID]	4.7
CC(CN1c2ccccc2Sc2ccccc21)N(C)C (stereo not given) [PROMETHAZINE]	6.3
CN1C(C(=O)Nc2ccccn2)=C(O)c2sc(Cl)cc2S1(=O)=O [LORNOXICAM]	4.8
CC(=O)Nc1nnc(S(N)(=O)=O)s1 [ACETAZOLAMIDE]	5.7

====

# Species on record: Rattus norvegicus
# EXPERIMENTAL PROTOCOL: Open TG-GATES - Regimen: Daily Repeat
# Assay type: toxicity, organism-based, Sprague-Dawley
# Parameters: regimen Daily Repeat, gender Male, age 6 weeks
# CONDITION PARAMETERS: in vivo, po, 0 mg/kg, 72 h, tissue Kidney, route gavage, dose level Control, time 3 day

MOLECULE	UNIT INFO	KIDNEY_L
O=C(O)Cc1ccccc1Nc1c(Cl)cccc1Cl	g	1
Clc1c(Cl)c(Cl)c(Cl)c(Cl)c1Cl	g	1.1
CC(CN1c2ccccc2Sc2ccccc21)N(C)C (stereo not given)	g	1
CCOC(=O)[C@H](CCc1ccccc1)N[C@@H](C)C(=O)N1CCC[C@H]1C(=O)O	g	1.1
C#C[C@]1(O)CC[C@H]2[C@@H]3CCC4=Cc5oncc5C[C@]4(C)[C@H]3CC[C@@]21C	g	1
CC(=O)Nc1nnc(S(N)(=O)=O)s1 [ACETAZOLAMIDE]	g	1
C1CCC(C(CC2CCCCN2)C2CCCCC2)CC1 (stereo not given)	g	1.1
CN(C)[C@@H]1C(O)=C(C(N)=O)C(=O)[C@@]2(O)C(O)=C3C(=O)c4c(O)cccc4[C@@](C)(O)[C@H]3C[C@@H]12	g	0.9
Cc1cccc(Nc2ccccc2C(=O)O)c1C	g	1
CN1C(C(=O)Nc2ccccn2)=C(O)c2sc(Cl)cc2S1(=O)=O	g	1

====

# Organism: Rattus norvegicus
# EXPERIMENTAL PROTOCOL: Open TG-GATES - Regimen: Daily Repeat
# Type: toxicity, organism-based, Sprague-Dawley
# Set-up: regimen Daily Repeat, gender Male, age 6 weeks
# CONDITION PARAMETERS: in vivo, po, 0 mg/kg, […], tissue Plasma, route gavage, dose level Control, time 14 day

QUERY SMILES	gamma-GTP, IU/L
O=C(O)Cc1ccccc1Nc1c(Cl)cccc1Cl	1
CN1C(C(=O)Nc2ccccn2)=C(O)c2sc(Cl)cc2S1(=O)=O	0.8
C#C[C@]1(O)CC[C@H]2[C@@H]3CCC4=Cc5oncc5C[C@]4(C)[C@H]3CC[C@@]21C	3
Cc1cccc(Nc2ccccc2C(=O)O)c1C	0.8
Clc1c(Cl)c(Cl)c(Cl)c(Cl)c1Cl	1.2
